meta.source: patent US20250101028A1

target: GST-tagged GDP-loaded KRAS G12V (amino acids 1-169) (Homo sapiens, UniProt P01116, G12V); construct: GST-tagged GDP-loaded KRAS G12V (amino acids 1-169); experiment: KRAS G12V probe displacement assay (TR-FRET); conditions: displacement of biotinylated probe 2 from GDP-loaded KRAS G12V
Sequence (P01116 1-169 isoform P01116-2 G12V): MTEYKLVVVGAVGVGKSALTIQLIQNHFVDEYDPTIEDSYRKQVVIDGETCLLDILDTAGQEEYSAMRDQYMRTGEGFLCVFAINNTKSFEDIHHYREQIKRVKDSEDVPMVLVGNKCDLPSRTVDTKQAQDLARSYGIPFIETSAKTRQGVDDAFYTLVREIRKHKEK
Please respond with reported pIC50 for every item in the list.
Give bare numbers, as −log10 of the molar value.

Nc1cc(Cl)c(C(F)(F)F)c(-c2ncc3c(N4CCO[C@H](CO)C4)nc(OC[C@@]45CCCN4C[C@H](F)C5)nc3c2F)c1 [Example 120] = 8.18

Go through the list and state pIC50 for each entry.
1. Nc1nc2c(-c3c(C(F)(F)F)cc4c(NC5CC6(CCC6)C5)nc(OC[C@@]56CCCN5C[C@H](F)C6)nc4c3F)ccc(F)c2s1 [Example 22]
2. Nc1cc(Cl)c(C(F)(F)F)c(-c2ncc3c(NC45CC(C4)C5)nc(OC[C@@]45CCCN4C[C@H](F)C5)nc3c2F)c1 [Example 112]
3. N#C[C@H]1C[C@H](Nc2nc(OC[C@@]34CCCN3C[C@H](F)C4)nc3c(F)c(-c4ccc(F)c5sc(N)nc45)c(C(F)(F)F)cc23)C1 [Example 19]
4. Nc1nc2c(-c3c(C(F)(F)F)cc4c(NC5CC6(COC6)C5)nc(OC[C@@]56CCCN5C[C@H](F)C6)nc4c3F)ccc(F)c2s1 [Example 23]
5. Nc1nc2c(-c3c(C(F)(F)F)cc4c(N5CCC6(CCNC(=O)O6)CC5)nc(OC[C@@]56CCCN5C[C@H](F)C6)nc4c3F)ccc(F)c2s1 [Example 99]

Result:
1: 6.44; 2: 7.72; 3: 8.00; 4: 7.64; 5: 8.55

* * *

biological target: GST-tagged GDP-loaded KRAS G12V (amino acids 1-169) (Homo sapiens, UniProt P01116, G12V); construct: GST-tagged GDP-loaded KRAS G12V (amino acids 1-169); experiment: KRAS G12V probe displacement assay (TR-FRET); details: displacement of biotinylated probe 2 from GDP-loaded KRAS G12V
measurementKind: IC50 (nM)
Give bare numbers, in nM.

CN1CC2(CCN(c3nc(OC[C@@]45CCCN4C[C@H](F)C5)nc4c(F)c(-c5ccc(F)c6sc(N)nc56)c(C(F)(F)F)cc34)CC2)CC1=O [Example 97] = 3.8
Nc1nc2c(-c3c(C(F)(F)F)cc4c(N5CCC6(CC5)CN(CC5CC5)C(=O)O6)nc(OC[C@@]56CCCN5C[C@H](F)C6)nc4c3F)ccc(F)c2s1 [Example 92] = 2.8

Now take the following compound into account.
Task: // lookup IC50 for Nc1nc2c(-c3c(C(F)(F)F)cc4c(NC5CCCCC5)nc(OC[C@@]56CCCN5C[C@H](F)C6)nc4c3F)ccc(F)c2s1 [Example 27]
Result: 503

* * *

target: GST-tagged GDP-loaded KRAS G12D (amin acids 1-188) (Homo sapiens, UniProt P01116, G12D); construct: GST-tagged GDP-loaded KRAS G12D (amin acids 1-188); test: KRAS G12D probe displacement assay (TR-FRET); conditions: displacement of biotinylated probe 2 from GDP-loaded KRAS G12D
Sequence (P01116 1-188 isoform P01116-2 G12D): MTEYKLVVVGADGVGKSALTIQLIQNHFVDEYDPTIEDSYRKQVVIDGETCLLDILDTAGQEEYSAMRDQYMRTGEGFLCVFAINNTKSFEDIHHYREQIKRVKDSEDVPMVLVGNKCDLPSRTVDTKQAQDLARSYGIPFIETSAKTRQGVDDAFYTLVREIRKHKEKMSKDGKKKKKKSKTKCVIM
Please respond with reported log10(IC50) for every item in the list.
log10 IC50, nM

Go through the list and state log10(IC50) for each entry.
1. C[C@@]1(O)CCCN(c2nc(OC[C@@]34CCCN3C[C@H](F)C4)nc3c(F)c(-c4cc(N)cc(Cl)c4C(F)(F)F)ncc23)C1
2. N#CC1CCN(c2nc(OC[C@@]34CCCN3C[C@H](F)C4)nc3c(F)c(-c4ccc(F)c5sc(N)nc45)c(C(F)(F)F)cc23)CC1
3. Nc1nc2c(-c3c(C(F)(F)F)cc4c(NC5CC5)nc(OC[C@@]56CCCN5C[C@H](F)C6)nc4c3F)ccc(F)c2s1
4. Nc1nc2c(-c3c(C(F)(F)F)cc4c(N5CCC6(CC5)CNC(=O)O6)nc(OC[C@@]56CCCN5C[C@H](F)C6)nc4c3F)ccc(F)c2s1
5. C[C@@H]1C[C@@H](C#N)CCN1c1nc(OC[C@@]23CCCN2C[C@H](F)C3)nc2c(F)c(-c3ccc(F)c4sc(N)c(C#N)c34)c(C(F)(F)F)cc12

Result:
1. 0.08
2. 0.82
3. 1.34
4. 1.36
5. -0.47
